Test system: CAKI-1 renal
Assay: NCI-60 one-dose screen, 48 h
Details: 10 µM unless noted
The panel holds about 83,000 compounds, 20% with a hit somewhere; the sample as a whole holds those more often. Activity calls are given as the source filed them. Rule for the calls: active = growth percent below 10; inactive = the rest.
Field 'call' accepts true (1) for active, false (0) for inactive

The examples below pair each entry with its known result.
{"compound": "C#CC(=O)N(c1ccc(OC)cc1OC)C(C(=O)NCC(=O)OCC)c1cccs1 (configuration not stated)", "classLabel": "true (1)"}
{"compound": "C[C@@H]1C[C@H]2C(=O)O[C@@H](C)C(NC(=O)[C@H](Cc3cc(F)cc(F)c3)NC(=O)Nc3ccc(C4CC4)cc3F)C(=O)N3CCC[C@H]3C(=O)N3CCCC[C@H]3C(=O)N[C@@H](CO)C(=O)N2C1 (some centres not stated)", "classLabel": "false (0)"}

Input line: Entry Clc1nc2ccccc2nc1-c1nnc(C2CCCCC2)o1 : call = ?
Output line: false (0)

Input line: Dear all, I need the recorded test outcome for COc1cc(OC)cc(C(=O)Nc2sc3c(c2C(N)=O)CCC(=O)C3)c1 , thank you.
Output line: false (0)

Input line: Query: recorded result category for N#Cc1ccccc1Cn1c2nc(=N)c3ccccc3c-2nc2ccccc21 in this test
Output line: false (0)

----------
Tested on: OVCAR-5 ovarian
Assay: NCI-60 one-dose screen, 48 h (100 = growth as untreated, 0 = no growth, -100 = all killed)
Conditions: 10 µM unless noted
This is part of a sample that, as a whole, favours compounds with a hit. Of some 83,000 tested, about 20% had one in any assay.
valueType: growth (%)
One number for each entry, in %.

Hi team, please reply with growth for each item in this list.
1. Cn1ccnc1C(=O)/C=C/c1ccc(CNC(=O)c2ccc(Cl)cc2)cc1
2. Nc1ncc(-c2ccc3ncnc(N4CCc5cc(F)c(Cl)cc54)c3c2)cn1

Output line:
1. 11
2. 19.8

Measured growth of C#C[C@]1(O)CC[C@H]2[C@@H]3CC=C4c5sc(-c6ccc7c(c6)OCO7)nc5CC[C@]4(C)[C@H]3CC[C@@]21C : 36.3

----------
Tested on: HOP-62 NSCLC
Experiment: NCI-60 one-dose screen, 48 h (100 = growth as untreated, 0 = no growth, -100 = all killed)
Details: 10 µM unless noted
Compounds without any hit were thinned out: in the full panel of roughly 83,000, 20% have a hit.
For each record, check the reported growth: if it is below 80% write T, else write F.

Below, 4 molecules whose answers are already recorded.
{"molecule": "CCN1CCN(Cc2ccc(C(=O)Nc3ccc(C)c(Oc4ccc(-c5[nH]nc6ncnc(N)c56)cc4)c3)cc2C(F)(F)F)CC1", "targetEntity": "HOP-62 NSCLC", "classLabel": "F"}
{"molecule": "COc1ccc(/C=C/C(=O)c2cc(S(N)(=O)=O)c(OC)cc2OC)cc1", "targetEntity": "HOP-62 NSCLC", "classLabel": "F"}
{"molecule": "CNC(=O)c1c(NC(=O)c2ccccc2C(F)(F)F)sc2c1CCC(=O)C2", "targetEntity": "HOP-62 NSCLC", "classLabel": "F"}
{"molecule": "CCCn1cnc2c(c1=N)C(c1ccc(OC)cc1)c1sc3c(C)cccc3c1O2 (stereo not given)", "targetEntity": "HOP-62 NSCLC", "classLabel": "T"}

Input line: Is the reported growth for Cn1ccnc1C(=O)/C=C/C=C/c1ccc(C(=O)Nc2ccc(F)cc2)cc1 strictly below 80%?
Output line: T

// provenance: PubChem BioAssay (NCI)
